Each item that follows carries a reported protein stability index.
- assay_remarks: protein stability index of a GFP-peptide fusion (GPS, HEK-293T) (PSI 1-6); higher = more stable;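 note: 24-mer peptide tiles fused after GFP, lentivirally expressed, FACS-sorted into six equal bins by GFP/DsRed ratio, decoded by Illumina sequencing, PSI is the read-weighted mean bin number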
- condition_details: treatment: MLN4924 1 uM, 8 h; c terminus: a fixed tail appended
readout_name: protein stability index

• ELACPAERSGHVAVSDGRHMFVWG [KLHDC2] = 2.92
• AFWSLVTLGSSFIPGEHFWLLLLT [SPNS1] = 2.91
• SSGNTVLLLILCMQHSFPEPGRLY [TMEM192] = 3.09
• DIKRLLVNFMYLQSLLQPKSSSVD [SMG5] = 3.08
• KFSQNSHLIKHRRTHTGEQPYTCS [ZNF75A] = 3

###

- assay_remarks: protein stability index of a GFP-peptide fusion (GPS, HEK-293T) (PSI 1-6); higher = more stable
- condition_details: treatment: DMSO; c terminus: a fixed tail appended
Below is a list of entries, each paired with its recorded protein stability index value.
readout_name: protein stability index

- MVGLILGPFGINHGIELHSDVVEY [PCMTD1]: 2.68
- QDIERGVQSEIFLHESYCMDTSHQ [LYSMD4]: 4.24
- FRLVEKSCPEGDASECPQATNAKD [PPEF2]: 5.11

###

- assay_remarks: protein stability index of a GFP-peptide fusion (GPS, HEK-293T) (PSI 1-6); higher = more stable
- condition_details: treatment: DMSO; c terminus: a fixed tail appended
Rule: protein stability index of 3 or more gives criterion met; anything lower gives criterion not met.

* STSFRVYIMAFDIKSEDMLKILKP [FBXO33] | criterion not met
* ESFYESTSPECASPQFEGPLSPPP [NEUROD6] | criterion met
* AAWGARVFSFGKHYWELDVDNSCD [TRIM43] | criterion not met
* HIRHLGWNPDARYSEHFLQEAKLL [GLT8D2] | criterion not met
* CSNLVKTRRRAVGWWKRLFTLKEE [ARL6IP1] | criterion not met
* KNNDLVVAVNGESVETLDHDSVVE [PDZK1] | criterion met
* SVNTHDYAKVKEFIVDILQFLDIG [MATN2] | criterion not met
* LATFSSDWEIQEDSRLMCSSVQKA [CCDC3] | criterion met
* SYTIITPLFNPMIYSLRNKEFKSA [OR10K2] | criterion not met
* EETTSQDWGTPRELTFSYIAFDGV [RTN2] | criterion not met
* LTLQVLVAGNPQDTRLRYSFFVPR [ADAMTS4] | criterion met
* CREPSPKMDFKTNILLKNLVTIAR [TRIM43] | criterion not met
* LERKCEKRSVYIDARDEELEKDTM [ZC3H15] | criterion met
* PGTPPSYSSRTPGTPGTPSYPRTP [MAP2] | criterion met
* SYAHGWMFQGWNCGDYFPDGITNG [CPN1] | criterion not met
* TMGLRHLPVVNAVGEIVGIITRHN [CLCN6] | criterion not met
* TAPSGGQWGAEPEGSCYQTFRQYC [RNF208] | criterion not met
* EIFAIDLRCGNQGKGWKATRLFHD [DCAF4] | criterion not met
* PLGVDESLFSYGLRESIASYLSLT [SLA] | criterion not met

###

- assay_remarks: protein stability index of a GFP-peptide fusion (GPS, HEK-293T) (PSI 1-6); higher = more stable
- condition_details: treatment: DMSO; c terminus: a fixed tail appended
readout_name: protein stability index

- SLAGALGVKFVGLFIILQVGLNTI [POMT2]: 3.27
- VENECYQVFLDRINRADYCPECYP [TOR1AIP2]: 2.43
- SVSKAQSIYGIPHSTLEYKVKERL [LCOR]: 3.42
- QLHHVVYCFMIAYGTQRTLILESQ [FUT8]: 3.12
- CQVGGIEALVRTVLRAGDREDITE [CTNNB1]: 3.28
- APLIQPCHSESGKSRLVQLPPVAV [PCMTD2]: 3.13
- AFEPEALGNLVEGLDFHRFYFENL [CAMK2A]: 2.51
- FPEFCSSPSPPVEVKIEEPVSMEM [INTS3]: 4.65
- CEVWACNLDEEMKKIRQVIRKYNY [CNOT7]: 2.28

###

Each record here notes measured protein stability index.
- assay_remarks: protein stability index of a GFP-peptide fusion (GPS, HEK-293T) (PSI 1-6); higher = more stable
- condition_details: treatment: DMSO; c terminus: a fixed tail appended
readout_name: protein stability index

* VSCFLTFNIFDWLGRSLTAVFMWP [SLC29A1] | 3.03
* TNNGAGFGLSILWVLLFTPCSFVC [SCAMP3] | 3.04
* YGLQGGMAFLDKRLQVKEHQHEEI [ATL3] | 3.06

###

Attribute: protein stability index
- assay_remarks: protein stability index of a GFP-peptide fusion (GPS, HEK-293T) (PSI 1-6); higher = more stable
- condition_details: treatment: MLN4924 1 uM, 8 h; c terminus: a fixed tail appended
readout_name: protein stability index

- EKIAAEIAQAEEQARKRQEEREKE [SMARCE1]: 5.74
- CQFRPPVRVNDGGGSHPSRPNSRH [VDR]: 4.77
- LEEMILPLMVASAQSGERECHIVV [BTBD10]: 2.48
- DLKDDGNMMKVLRGHQNWVYSCAF [WSB1]: 1.87
- SILFGFWTSFICDTYIVLAWISKI [SMIM2]: 3.31
- LSSNREAHQHRDKMQQSKNQVVSS [CSNK1G3]: 4.81
- TVRAMTHVINQGMAMYWGTSRWSS [KCNAB2]: 2.75
- WNNVGLLGGRALMNCLPSNRTLWR [LRRC45]: 2.24
- FQQNHLFWLQNSSPSSDRVSAIIW [PHTF1]: 2.43
- NEDEDLGPCEGPSKEDKDLDSSEG [SPANXN3]: 5.54
- LVAKELGQTGTRLTPADKAEHMKR [AUP1]: 4.29
- KQESTRPEKKSDQPMCEEHEEERI [TRIM55]: 5.48
- DSAVENLLLLSKAKLVPSEREASP [IKZF1]: 4.59
- GADYPVDGLPDLGHAQDLMDGLPP [CTNNB1]: 5.17
- GCRLPSISSTTCGRQLEKVPEKRD [SPATS1]: 3.84
- DVGRYIDHYAAIKKAWDDLKKYLE [FBXO3]: 2.97
- ERQCALRVFKARIYTNRYETNEED [FBXO39]: 3.61
- VSAATQLRHFFLVEDLVDSLKLAL [RTN2]: 2.49
- DVLLTLKHTVKEHECKLTQEILEL [IQUB]: 1.96
- GGANDRWVRSVSFSHDGLHVASLA [WSB1]: 3.16
- VAKRKSSMPQKFLGDKGLSDTPYD [IKZF1]: 4.38
- HFDATNLHKQTASDLLDEKEIAKN [FEM1C]: 5.31
- PSVEQAADSLDFDETFLATSFLQH [FOXJ1]: 4.41
- MPGFPDNIRPSSSGGYWVGMSTIR [APMAP]: 2.9
- DEPYEKVVDRIQSSGKNVTLLVCG [PDZK1]: 3.5
- KDARQWFAELSVDMEKILEIIRVI [CCNC]: 2.15
- YIKTPLFNPEVAKYLKVPQDPLKF [IQUB]: 2.57
- YDPTYKDKEGPSPKVEYVWRNIIL [SCD]: 2.37
- NEPSQAETAVEGDPSGVSGATVGR [C18orf25]: 5.66
- FVELQGFLAAEQDIREEIRKVVQS [TSN]: 2.48
- DNDHKEAVGKMGFVVTMLKLIQKK [ZER1]: 2.07
- CQGQPQGKAVVSHSKGHKSSRQEK [ELOA2]: 5.37
- WAIPNRQINDGMGGDGDDMEIFME [BEX3]: 4.22
- GKGWKATRLFHDSAVTSVRILQDE [DCAF4]: 3.67
- LEKEREKEISDDEAEEEKGEKEEE [HSP90AB1]: 5.74
- KGLNARMMRGLSYSLTTSSTHKSS [RAB40A]: 3.52
- FKKHDADKVGLITLSDWAAAVESV [PPEF2]: 2.64
- RDQGSSALSGVGGIRLPNGKLKCD [IKZF1]: 4.68
- HRIWMYNCHIGGSFSEETEKKFEH [LOXL2]: 2.62
- DFEHRPKAPVVECSITGDSSRVIA [WDR88]: 4.49

###

- assay_remarks: protein stability index of a GFP-peptide fusion (GPS, HEK-293T) (PSI 1-6); higher = more stable
- condition_details: treatment: MLN4924 1 uM, 8 h; c terminus: a fixed tail appended
Catalogue of sequences with associated protein stability index
readout_name: protein stability index

* ACGGGHLLPYFYIIYMAILLTHRC [DHCR7] | 3.07
* FARVKKGADGVMRTMAPEKLLKSM [SNAP91] | 3.05
* WRLLNPGEYVVTAKAEGFTASTKN [CPXM2] | 3.03
